Data provenance: paper PMC4072508

# Target of assay: T1, Bcl-w, Q92843
# T1 chain: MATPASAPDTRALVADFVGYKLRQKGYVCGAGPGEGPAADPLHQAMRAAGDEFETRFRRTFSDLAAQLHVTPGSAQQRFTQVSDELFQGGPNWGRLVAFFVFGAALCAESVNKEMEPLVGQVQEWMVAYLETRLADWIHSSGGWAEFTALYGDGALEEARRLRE
# Assay: peptide SPOT array, c-Myc-tagged receptor at 1 uM or 100 nM, anti-c-Myc-Cy3
Endpoint name: SPOT signal as a fraction of Bim BH3's signal on the same receptor and array
Form field (numeric): enter value without unit.

Enquiry: # lookup: SPOT signal as a fraction of Bim BH3's signal on the same receptor and array of PEDLQDVGWFLHKLSQQILKKEKEKK [TLR5]
Return: 0.3

Enquiry: Give the measured SPOT signal as a fraction of Bim BH3's signal on the same receptor and array of ASEAMLFEEALEKYGKDFNDIRQDFL [MTA2] .
Return: 0.02

Enquiry: So what's the measured SPOT signal as a fraction of Bim BH3's signal on the same receptor and array for this one? HPKRKQVTELLLRKGANVNEKNKDFM [TNKS]
Return: 0.5

Enquiry: Given the entry IGQRQTVVRTLNATGEEIIQQSSKTD [DMD] , report its measured SPOT signal as a fraction of Bim BH3's signal on the same receptor and array.
Return: 0.02

Enquiry: Can you look up the measured SPOT signal as a fraction of Bim BH3's signal on the same receptor and array of QLRLSDAGQYLCQAGDDSNSNKKNAD [PIGR] for me?
Return: 0.02

Enquiry: Any idea what its SPOT signal as a fraction of Bim BH3's signal on the same receptor and array is? The binder is TIRNGHDSELLRSLAEELPLEQGFTI [PLCD4]
Return: 0.01

Enquiry: Reported SPOT signal as a fraction of Bim BH3's signal on the same receptor and array for RDASKILVDALQKFADDMYSLYGGNA [ATP6AP2] : what is it?
Return: 0.05

Enquiry: Could you share which SPOT signal as a fraction of Bim BH3's signal on the same receptor and array value was measured for LKELDLSGNSLSHSAVKSLCKTLRRP [NLRP1] ?
Return: 0.41

Enquiry: Need SPOT signal as a fraction of Bim BH3's signal on the same receptor and array of EGTKIVLGKQLIESADEVRRKSLVLK [TAF1] , thanks.
Return: 0.48

Enquiry: I have this binder here, KFMKTIPGTALVEMGDEYAVERAVTH [HNRPLL] , and I need its recorded SPOT signal as a fraction of Bim BH3's signal on the same receptor and array.
Return: 0.02

Enquiry: What SPOT signal as a fraction of Bim BH3's signal on the same receptor and array value was documented for this binder, DSLAKFAGRKLKDCGEDLLVEISEVL [PCM1] ?
Return: 0.02

Enquiry: Would you kindly share the measured SPOT signal as a fraction of Bim BH3's signal on the same receptor and array for GMTSEQVAQVLRNCGNSVRMLVARDP [INADL] ?
Return: 0.06

Enquiry: Suppose we examine the binder LGDGPKLVRELFRVAEEHAPSIVFID [PSMC1] ; what SPOT signal as a fraction of Bim BH3's signal on the same receptor and array value has been reported?
Return: 0.02

Enquiry: I am curious: what SPOT signal as a fraction of Bim BH3's signal on the same receptor and array value has been reported for DLTDKLVSFYLETYGAELTANVLRDM [PYCARD] ?
Return: 0.03

Enquiry: Dear colleague, I am looking for the recorded SPOT signal as a fraction of Bim BH3's signal on the same receptor and array of the following binder: YNLKSPAVKRLMKEAAELKDPTDHYH [UBE2J1]
Return: 0.08

Enquiry: Name the recorded SPOT signal as a fraction of Bim BH3's signal on the same receptor and array for FEKLRMIAKEIRHVGRMASVNMDPAL .
Return: 0.18

Enquiry: Requested field: SPOT signal as a fraction of Bim BH3's signal on the same receptor and array. Item: ASGNKEMIEALKQYAMDYSNKALEKG [IFIT3]
Return: 0.04

Enquiry: Could you tell me which SPOT signal as a fraction of Bim BH3's signal on the same receptor and array is on file for AAVGNHVAKLLQSIGQAPESISEKEL [NAE1] ?
Return: 0.02

Enquiry: Name the reported SPOT signal as a fraction of Bim BH3's signal on the same receptor and array value associated with the binder DGLDLPSETDLRILGCELIQAAGILL [CCNL1]
Return: 0.01

Enquiry: Would you mind telling me what SPOT signal as a fraction of Bim BH3's signal on the same receptor and array value was observed for EVLAGPLAQRLSHIAEDVGRLVKKSR [ARHGAP4] ?
Return: 0.94

Enquiry: I have this binder here, TDENKKVGLALKDLAKQYSDRLECCE [NUB1] , and I need its recorded SPOT signal as a fraction of Bim BH3's signal on the same receptor and array.
Return: 0.02

Enquiry: Query: SPOT signal as a fraction of Bim BH3's signal on the same receptor and array; subject: EEIIHKLAMQLRHIGDNIDHRMVRED [PXT1]
Return: 0.99

Enquiry: Entry CLKRCRSAQVLHLYGATYSADGEDRA [NLRP12] has what SPOT signal as a fraction of Bim BH3's signal on the same receptor and array?
Return: 0.07

Enquiry: Which SPOT signal as a fraction of Bim BH3's signal on the same receptor and array is reported for this binder? RAGELDRARELMRIGKRFGAVLEALE [CC2D1B]
Return: 0.13

Enquiry: Name the reported SPOT signal as a fraction of Bim BH3's signal on the same receptor and array value associated with the binder VFERCELARTLKRLGMDGYRGISLAN [LYZ]
Return: 0.69

Enquiry: Entry IKEAADIIQKLHLIAQELPFDRFSEV [EXOC5] has what SPOT signal as a fraction of Bim BH3's signal on the same receptor and array?
Return: 0.21

Enquiry: Give the measured SPOT signal as a fraction of Bim BH3's signal on the same receptor and array of RIEERKAIIGLYNYAHEMTHGASDRE [NCKAP1] .
Return: 0.03

Enquiry: SPOT signal as a fraction of Bim BH3's signal on the same receptor and array for VIKQRRLPDQLSKLADRIQLSGRYYL ?
Return: 1.08
